Hi there, I'd appreciate the recorded CDMF75 IC15 for every entry that follows.
Test system: bovine cardiac myofibrils
MEASUREMENT NOTES: Myofibril assay: PK/LDH-coupled steady-state ATPase activity of skinned bovine cardiac myofibrils
Type: biochemical
RECORDED CONDITIONS: Ca2+ activating to 75% of maximal rate
Answer with a number only, understood to be in µM.

Request: CDMF75 IC15, test system bovine cardiac myofibrils, entry `CC(=O)N1CC2(C1)C(=O)N(C1CCCCCC1)CC(=O)N2Cc1ccc(C(F)(F)F)cc1`
23.7

Query CDMF75 IC15 on bovine cardiac myofibrils for `N#Cc1ccc(N2CC(=O)N(Cc3ccc(C(F)(F)F)cc3)[C@]3(C[C@H](C(=O)NC4CC4)C3)C2=O)c(F)c1`
4.5

Field: CDMF75 IC15 (bovine cardiac myofibrils). Entry: `CC(C)N1CC(=O)N(Cc2ccc(Cl)cc2)C2(CN(c3nc(C(N)=O)cs3)C2)C1=O`
7.2

---

I'd appreciate it if you could supply CDMF75 IC15 values for the items below.
Tested on: bovine cardiac myofibrils
MEASUREMENT NOTES: Myofibril assay: PK/LDH-coupled steady-state ATPase activity of skinned bovine cardiac myofibrils
Format: biochemical
RECORDED CONDITIONS: Ca2+ activating to 75% of maximal rate
Description: To evaluate the effect of compounds on the ATPase activity of full-length cardiac myosin in the context of the native sarcomere, skinned myofibril assays were performed. […] Small molecule agents were assessed for their ability to inhibit the steady-state ATPase activity of bovine cardiac myofibrils using pyruvate kinase and lactate dehydrogenase (PK/LDH)-coupled enzyme system. This assay regenerates myosin-produced ADP into ATP by oxidizing NADH, producing an absorbance change at 340 nm. […]
All answers are understood in µM, so give the number only.

Field request: CDMF75 IC15 | item: C[C@@H](c1ccc(Cl)cc1)N1C(=O)CN(c2ncc(Cl)cc2F)C(=O)C12CN(C=O)C2 [Compound 568]
1.2

Using the record for CC(C)N1CC(=O)N(Cc2cccc(C(F)(F)F)c2)C(c2ccc(Cl)cc2)C1=O (stereo not shown) [Compound 308] , report its CDMF75 IC15.
22.7

What value of CDMF75 IC15 has been recorded for this entry: C[C@@H](c1ccc(C(F)(F)F)cc1)N1C(=O)CN(c2ncc(Cl)cc2F)C(=O)C12CN(CC(F)F)C2 [Compound 593]
2.3

Look at this compound and give its reported CDMF75 IC15. CC(C)N1CC(=O)N(Cc2ccc(Cl)cc2)C2(CN(c3nc(C(F)(F)F)cs3)C2)C1=O [Compound 39]
3.9

Recorded CDMF75 IC15 for CC1(C2C(=O)N(c3ncc(Cl)cc3F)CC(=O)N2Cc2ccc(C(F)(F)F)cc2)COC1 (stereo not shown) [Compound 623] , please?
3.0

Using the record for CC(C)N1CC(=O)N(Cc2ccc(Cl)cc2)C2(CN(c3ccc(C#N)cn3)C2)C1=O [Compound 63] , report its CDMF75 IC15.
5.1

---

Test system: bovine cardiac myofibrils
MEASUREMENT NOTES: Myofibril assay: PK/LDH-coupled steady-state ATPase activity of skinned bovine cardiac myofibrils
Assay type: biochemical
RECORDED CONDITIONS: Ca2+ activating to 75% of maximal rate
ASSAY ENDPOINT: CDMF75 IC15

Can you look up CDMF75 IC15 on bovine cardiac myofibrils for CC(C)N1CC(=O)N(Cc2cccc(Cl)c2)C(c2ccc(Cl)cc2)C1=O (stereo not shown) [Compound 298] ?
5.4 µM

Form entry - test system: bovine cardiac myofibrils; read-out: CDMF75 IC15; compound: CC(C)N1CC(=O)N(Cc2ccc(Cl)cc2)C2(CCN(c3cnn(C)c3)C2=O)C1=O (stereo not shown) [Compound 330]
10.7 µM

Query for bovine cardiac myofibrils: what CDMF75 IC15 does the record show for COC(=O)[C@H]1C[C@]2(C1)C(=O)N(c1ccc(C#N)cc1F)CC(=O)N2Cc1ccc(Cl)cc1 (single isomer, unassigned) [Compound 488B] ?
0.2 µM

GET /values?readout=CDMF75 IC15&system=bovine cardiac myofibrils&item= CC(C)N1CC(=O)N(Cc2ccc(Cl)cc2)C2(CCN(c3cnn(C)c3)C2)C1=O (stereo not shown) [Compound 78]
4.1 µM
